Hello, the source for this data is PubChem BioAssay, in case you need it.

For each entry below, report its z-score value.
assay: mitochondrial membrane potential change in A549 cells, profiling panel, cell-based, JC-1 fluorescence, basal, 24 h, 100 nL (AID 1138); conditions: higher = more signal;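 also: A549 lung adenocarcinoma cells under basal conditions with no added stimulus; test concentration not given here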
Give bare numbers.

Reference set, count: 2
compound	z-score
CN1C(=O)C2C=CC(C(O)c3ccccc3)N(N(c3ccccc3)c3ccccc3)C2C1=O (stereo unspecified)	-0.516
CCOC(=O)C[C@H]1[C@H](OC(=O)c2ccc(C(=O)c3ccccc3)cc2)[C@@H](NC(=O)CC(C)C)c2cc(OCCCO)ccc2N1C(=O)c1ccc2ccccc2n1	1.78

Quick one: give me z-score for each item below, same order please.
1. COc1cc(C(O)C2C=CC3C(=O)NC(=O)C3N2Nc2ccccn2)cc(OC)c1OC (stereo unspecified)
2. COCCOC(=O)N1C(=O)[C@@]2(c3cc(C#Cc4ccc(OC)cc4)ccc31)[C@H](c1ccccc1OCCO)N1[C@H](c3ccccc3)[C@H](c3ccccc3)OC(=O)[C@H]1[C@@H]2C(=O)NC[C@H](O)c1ccccc1

[0.623, -0.922]
